Catalogue of melting point readings, one per entry.
parameterMeasured: melting point

{"querySmiles": "CC(C)COc1ccc(C(=O)N/C(=C\\c2ccc3ccccc3c2)C(=O)NCCO)cc1", "parameterMeasured": "melting point", "result": "150 to 152 °C"}
{"querySmiles": "CC(C)COc1ccc(C(=O)N/C(=C\\c2ccc(OC(C)C)cc2)C(=O)NCCO)cn1", "parameterMeasured": "melting point", "result": "74 to 76 °C"}
{"querySmiles": "CC(C)COc1ccc(C(=O)N/C(=C\\c2ccc(OC(C)C)cc2)C(=O)NCCO)c(F)c1", "parameterMeasured": "melting point", "result": "51 to 54 °C"}
{"querySmiles": "CC(C)Oc1ccc(/C=C(\\NC(=O)c2ccc(OCCc3ccc(N(C)C)cc3)cc2)C(=O)NCCO)cc1.Cl", "parameterMeasured": "melting point", "result": "103 to 105 °C"}
{"querySmiles": "CC(C)COc1ccc(C(=O)N/C(=C\\c2ccc(C(F)(F)F)nc2)C(=O)NCCO)cc1", "parameterMeasured": "melting point", "result": "184 to 187 °C"}
